B1: STK38L (parent)
chain: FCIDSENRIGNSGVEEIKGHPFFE

- Variants of: B1
- assay.summary: protein stability index of a GFP-peptide fusion (GPS, HEK-293T) (PSI 1-6); higher = more stable;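 further: lentivirally expressed fusions sorted by FACS into six bins by GFP to DsRed ratio, PSI derived from sequencing read proportions per bin multiplied by bin number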
- condition.details: c terminus: a fixed tail appended
measurement.label: protein stability index
API note: the answer field is a bare number with no unit suffix.

Recorded results for 2 variants are shown here.
V14F; 1.6
R8P; 2.71

Requested field: protein stability index. Item: `E16M`
2.28

Requested field: protein stability index. Item: `E15Y`
1.92

Requested field: protein stability index. Item: `F1Q`
4.91

Requested field: protein stability index. Item: `N7C`
1.06

Requested field: protein stability index. Item: `E15V`
2.52
